- protocol summary: optical density change of DRC41 E. coli – strain DRC41, OD650, 24 h, E. coli filamentation project, primary screen (AID 1093);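 also: MC1000 strain lacking acrAB efflux and sulA so SOS filamentation is blocked; test concentration not given here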
- settings: E. coli DRC41 growth, higher = more signal, called active from +8 up or from −8 down
Reported z-score is given for each of the following molecules.
Give the value as a plain number.

>>> print(df.to_string())
                               smiles_entry  measure_name  endpoint_result
0  CC(C)[Si]1(C(C)C)O[C@@H](c2ccccc2)c2cc(-c3ccc(-c4ccc(Cl)c(Cl)c4)o3)nc(CCc3ccccc3)c21       z-score           -0.823
1  COc1ccc([Si](C)(C)[C@@H]2[C@@H](CCO)O[C@]3(C(=O)N(Cc4cccc(N(C=O)c5ccccc5)c4)c4ccccc43)[C@H]2C)cc1       z-score             1.03

Proceeding to the next molecule to report its z-score.
q: Quote z-score reported for `O=C1C[C@@](C(=O)O)(c2ccc([N+](=O)[O-])cc2)[C@@H](c2ccc(CO)cc2I)N1C1CCCCC1` please.
a: 2.15

====

- measurement target: Dickkopf-related protein 1 (Homo sapiens) (UniProt O94907)
- Sequence (O94907 whole entry, looked up): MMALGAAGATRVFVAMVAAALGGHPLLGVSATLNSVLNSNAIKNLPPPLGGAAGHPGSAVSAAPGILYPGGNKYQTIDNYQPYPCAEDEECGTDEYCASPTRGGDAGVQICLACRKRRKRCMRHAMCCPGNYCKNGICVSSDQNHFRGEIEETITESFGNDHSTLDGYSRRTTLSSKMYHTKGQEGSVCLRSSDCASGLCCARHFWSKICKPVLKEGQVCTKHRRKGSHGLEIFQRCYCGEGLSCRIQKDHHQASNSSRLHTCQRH
- protocol summary: small molecules binding DKK1 protein – biochemical, small-molecule microarray, 635 nm fluorescence scan, primary screen (AID 1106);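 also: score merges emission near 667 nm with signal to noise over three replicate slides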
- settings: higher = more signal
Reported composite z-score is given for each of the following compounds.
Give the value as a plain number.

Example results:
In [3]: df
Out[3]:
                                   compound  endpoint_result
0  O=C1C2C=CC(C(O)c3ccc(Br)cc3)N(n3cnnc3)C2C(=O)N1Cc1ccccc1 (stereo not given)           0.0363
1  O=C1OCCC/C=C\[C@H]2OC34C=CCN(CCN5CCOCC5)C(=O)[C@H]3N(CCO)C(=O)[C@@H]4C12 (stereo not given in full)           -0.507
2     OCCCc1cc[n+](Cc2cccc(OC(F)(F)F)c2)cc1            0.346
3                     O=c1cccc(-c2ccccc2)o1             -0.1
4                         Cc1ccccc1/C=C/C=O           -0.243

q: Quote composite z-score reported for `C=C(C(=O)CC[C@@H](OC(=O)c1cccnc1)c1ccc(OCCO)cc1)C(C)C` please.
a: 0.906

q: Quote composite z-score reported for `CCCC[C@@H]1C[C@H]1[C@@H](NC(=O)c1ccccc1)c1ccc(-c2ccccc2)cc1` please.
a: 0.228

q: Quote composite z-score reported for `CCCNC(=O)[C@@]1(C)c2ccccc2C(=O)N(Cc2cc(C(F)(F)F)cc(C(F)(F)F)c2)[C@H]1c1ccc(CO)cc1` please.
a: -0.408

q: Quote composite z-score reported for `O=c1cccc(-c2cccc3ccccc23)o1` please.
a: -0.951

q: Quote composite z-score reported for `C=C(COC)/C(=C/C[C@H](OC(C)=O)c1ccccc1OCCO)c1cnc2ccccc2c1` please.
a: 0.743

====

- measurement target: Fibroblast growth factor 10 (Homo sapiens) (UniProt O15520)
- Sequence (O15520 whole entry, looked up): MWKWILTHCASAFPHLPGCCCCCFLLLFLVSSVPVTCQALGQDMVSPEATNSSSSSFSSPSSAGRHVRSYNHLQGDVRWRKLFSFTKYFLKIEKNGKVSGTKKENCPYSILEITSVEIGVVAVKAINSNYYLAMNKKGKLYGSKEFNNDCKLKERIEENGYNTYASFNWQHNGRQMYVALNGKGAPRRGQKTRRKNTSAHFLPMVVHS
- protocol summary: compounds binding fibroblast growth factor 10 – biochemical, small-molecule microarray, 635 nm fluorescence, primary screen (AID 1102)
- settings: FGF10 binding, fluorescence 635 nm, higher = more signal
Binary call on composite z-score: t from 0.4 upward, f beneath that.

compound	assigned category
COc1ccc([Si](C)(C)[C@H]2[C@H](CC(=O)N3Cc4ccccc4C[C@H]3CO)O[C@@]3(C(=O)N(Cc4cccc(I)c4)c4ccccc43)[C@@H]2C)cc1	t
O=C1[C@H]2C=C(Br)[C@H](C[C@@H]2OCCOCCO)[C@@]12CO2	t
COc1ccc(C#Cc2ccc3c(c2)[C@]2(C(=O)N3)[C@H](C(=O)N3CCN(c4ncccn4)CC3)[C@H]3C(=O)O[C@H](c4ccccc4)[C@H](c4ccccc4)N3[C@@H]2c2ccc(O)cc2)cc1	t
CC1CC/C=C\[C@H]2OC34C=CCN(c5ccc6ccccc6c5)C(=O)[C@H]3N(CCCCCO)C(=O)[C@@H]4C2C(=O)O1 (some centres not stated)	f
CC(c1ccccc1)C(O)C1C=CC2C(=O)N(c3ccccc3)C(=O)C2N1Nc1ccccc1F (configuration not stated)	f
COC(=O)[C@@]1(Cc2ccc(OC)cc2)[C@H]2c3cc(C(=O)N4CCCC4)n(CCc4ccccn4)c3C[C@H]2CN1C(=O)c1ccccc1	f

Note: attention shifts to another entry.
q: Hello, I need to know if `C=CC[C@]1(C(=O)O)N=C(c2ccc(OCCCO)cc2)O[C@H]1c1ccccc1CN=[N+]=[N-]` has measured composite z-score not below 0.4. Thanks!
a: f
